Target: human kidney renin (Homo sapiens)
Construct: Human renin was prepared from human kidney
Sequence (P00797 67-406): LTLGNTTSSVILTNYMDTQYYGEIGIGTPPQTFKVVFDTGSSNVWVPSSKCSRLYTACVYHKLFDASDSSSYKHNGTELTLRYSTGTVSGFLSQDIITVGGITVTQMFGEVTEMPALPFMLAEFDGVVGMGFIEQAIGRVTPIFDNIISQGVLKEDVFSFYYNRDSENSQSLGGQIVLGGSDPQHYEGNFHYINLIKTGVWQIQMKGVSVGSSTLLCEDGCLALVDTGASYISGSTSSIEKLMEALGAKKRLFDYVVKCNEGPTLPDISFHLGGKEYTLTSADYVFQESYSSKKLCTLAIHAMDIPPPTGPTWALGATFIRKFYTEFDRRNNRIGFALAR
Test: Radioimmunoassay Screen for Renin Inhibitors (in vitro angiotensin I generation, quantitated by radioimmunoassay)
Conditions: purified human plasma angiotensinogen, pH 6.0, one hour at 37° C., read-out: Renin Inhibiton IC50
observed.property: IC50 (nM)
Note: unit nM is implicit; provide only the numeric part.

**Query** Fill blank: measured IC50 of the molecule `CC(C)C[C@H](NC(=O)[C@@H](CC(=O)N1CCOCC1)Cc1cccc2ccccc12)C(=O)N[C@@H](CC(C)C)[C@@H](O)c1nccs1` is ____.
**Result** 250

---

Target: human kidney renin (Homo sapiens, UniProt P00797)
Construct: Human renin was prepared from human kidney
Assay: Radioimmunoassay Screen for Renin Inhibitors (in vitro angiotensin I generation, quantitated by radioimmunoassay)
Details: purified human plasma angiotensinogen, pH 6.0, one hour at 37° C., read-out: Renin Inhibiton IC50
Measured IC50 by item
Just the number in nM, nothing appended.

Some solved entries appear below for comparison.
> print(dat)
                               query.smiles  observed.property  reported
1  O=C(N[C@@H](Cc1cnc[nH]1)C(=O)N[C@@H](CC1CCCCC1)[C@@H](O)c1ccco1)[C@@H](CC(=O)N1CCOCC1)Cc1cccc2ccccc12               IC50       4.9
2  CC(C)(C)NC(=O)C[C@@H](Cc1cccc2ccccc12)C(=O)N[C@@H](Cc1cnc[nH]1)C(=O)N[C@@H](CC1CCCCC1)[C@@H](O)c1nccs1               IC50      7100

For the next question, use this molecule.
**Query** So what's the measured IC50 for this one? `CC(C)C[C@H](NC(=O)[C@@H](CC(=O)NCCOc1ccccn1)Cc1cccc2ccccc12)C(=O)N[C@@H](CC(C)C)[C@@H](O)c1nccs1`
**Result** 44
